This collection of values is drawn from patent US10336762B2.

Let's look at some compounds and their measured IC50.
# assay-target: UniProt Q9NWZ3
# Sequence (Q9NWZ3 whole entry): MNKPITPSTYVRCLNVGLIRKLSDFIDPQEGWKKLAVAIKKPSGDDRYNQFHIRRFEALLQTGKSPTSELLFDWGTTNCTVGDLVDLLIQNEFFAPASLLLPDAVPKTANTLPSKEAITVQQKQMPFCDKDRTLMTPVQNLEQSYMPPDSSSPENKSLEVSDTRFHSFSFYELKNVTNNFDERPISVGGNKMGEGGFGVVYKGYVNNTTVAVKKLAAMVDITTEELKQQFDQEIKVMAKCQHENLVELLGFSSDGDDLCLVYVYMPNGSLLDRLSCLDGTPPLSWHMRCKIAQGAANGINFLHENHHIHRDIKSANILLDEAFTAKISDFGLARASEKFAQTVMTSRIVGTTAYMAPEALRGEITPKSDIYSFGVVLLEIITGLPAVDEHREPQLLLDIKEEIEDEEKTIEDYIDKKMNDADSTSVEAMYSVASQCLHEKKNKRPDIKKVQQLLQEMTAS
# measurement-description: biochemical
# Format: biochemical
# measurement-setup: IRAK4 enzyme, TR-FRET (HTRF), 500 μM ATP
Kindly answer with a numeric value in nM, unit omitted.

CC(C)(O)[C@H](F)CNC(=O)c1cnc(-c2ccc3cc(C#N)cnn23)cc1Nc1ccc(OC(F)F)nc1 [Example 597]
1
COC(=O)N[C@]1(C)CC[C@H](Nc2cc(-c3ccc4cc(C#N)cnn34)ncc2C(=O)NC[C@@H](F)C(C)(C)O)CC1 [Example 619]
3

Then this compound:
Short answer on UniProt Q9NWZ3 for CNC(=O)OC12CCC(Nc3cc(-c4ccc5cc(C#N)cnn45)ncc3C(=O)NC[C@@H](F)C(C)(C)O)(CC1)CC2 [Example 412] , IC50: 1
